Assay: Tmax in rat plasma at 10 mg/kg, po
Assay type: ADME, organism-based
test readout: Tmax (h)
Provide only the numeric value, understood in h.

Would you mind telling me what Tmax value was observed for CC(C)n1nc2c(c1-c1ccc(F)cc1)CCNCC2 ?
1

----------
Assay: Protein binding in human plasma assessed as unbound fraction
Assay type: ADME, cell-free
test readout: fraction unbound
Just the number, please, no unit after it.

Recorded fraction unbound of CC(C)n1nc2c(c1-c1ccc(F)cc1)CCNCC2 , please.
0.3

----------
Experiment: AUC in rat at 3 mg/kg, sc
Type: ADME, organism-based
Parameters: dose 3 mg/kg
Conditions: in vivo
test readout: AUC (µM·h)
Give a bare numeral; the unit µM·h is implied.

Any idea what AUC was measured for CC(C)n1nc2c(c1-c1ccc(F)cc1)CCNCC2 ?
7.7

----------
Experiment: Clearance in rat at 1 mg/kg, iv
Assay type: ADME, organism-based
Settings: in vivo
test readout: clearance
Please give the number followed by its unit.

I am curious: what clearance value has been reported for CC(C)n1nc2c(c1-c1ccc(F)cc1)CCNCC2 ?
6.67 mL/min

----------
Assay: Half life in rat at 3 mg/kg, po
Assay type: ADME, organism-based
Conditions: in vivo
test readout: half-life (h)
Express the result in h but write the number alone.

half-life lookup needed for CC(C)n1nc2c(c1-c1ccc(F)cc1)CCNCC2 , thanks.
4.3

----------
Assay: Half life in rat at 3 mg/kg, sc
Assay type: ADME, organism-based
Conditions: in vivo
test readout: half-life (h)
State just the number; it will be interpreted in h.

Would you mind telling me what half-life value was observed for CC(C)n1nc2c(c1-c1ccc(F)cc1)CCNCC2 ?
3.9

----------
Biological target: UniProt P34969
Sequence (P34969 whole entry): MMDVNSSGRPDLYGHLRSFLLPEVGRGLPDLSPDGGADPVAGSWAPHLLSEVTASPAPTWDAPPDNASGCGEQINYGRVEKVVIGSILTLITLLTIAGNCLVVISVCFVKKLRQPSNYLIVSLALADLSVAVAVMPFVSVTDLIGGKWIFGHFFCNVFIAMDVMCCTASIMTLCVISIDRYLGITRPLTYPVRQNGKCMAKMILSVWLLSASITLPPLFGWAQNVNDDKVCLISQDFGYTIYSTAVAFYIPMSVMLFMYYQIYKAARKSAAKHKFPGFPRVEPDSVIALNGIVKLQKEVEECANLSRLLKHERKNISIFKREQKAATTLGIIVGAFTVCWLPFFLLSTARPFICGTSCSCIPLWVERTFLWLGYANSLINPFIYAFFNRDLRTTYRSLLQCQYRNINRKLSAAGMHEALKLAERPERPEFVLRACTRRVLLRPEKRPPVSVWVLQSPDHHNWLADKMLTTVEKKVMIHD
Assay: Inverse agonist activity at 5-HT7 receptor (unknown origin) by cAMP functional assay
test readout: IC50 (nM)
Give the quantity in nM, number only.

Need IC50 of CC(C)n1nc2c(c1-c1ccc(F)cc1)CCNCC2 , thanks.
100

----------
Assay: Clearance in rat at 3 mg/kg, po
Type: ADME, organism-based
Conditions: in vivo
test readout: CL/F (mL/min)
Your answer is read as mL/min, so omit the unit and give the number.

Would you kindly share the measured CL/F for CC(C)n1nc2c(c1-c1ccc(F)cc1)CCNCC2 ?
6.67

----------
Assay: Half life in non-human primates at 5 mg/kg, po
Type: ADME, organism-based
Details: in vivo
test readout: half-life (h)
Give the value in h but do not write h after it.

What value of measured half-life is listed for CC(C)n1nc2c(c1-c1ccc(F)cc1)CCNCC2 ?
11.4

----------
Read-out record for UniProt P28223: pKi
Sequence (P28223 whole entry): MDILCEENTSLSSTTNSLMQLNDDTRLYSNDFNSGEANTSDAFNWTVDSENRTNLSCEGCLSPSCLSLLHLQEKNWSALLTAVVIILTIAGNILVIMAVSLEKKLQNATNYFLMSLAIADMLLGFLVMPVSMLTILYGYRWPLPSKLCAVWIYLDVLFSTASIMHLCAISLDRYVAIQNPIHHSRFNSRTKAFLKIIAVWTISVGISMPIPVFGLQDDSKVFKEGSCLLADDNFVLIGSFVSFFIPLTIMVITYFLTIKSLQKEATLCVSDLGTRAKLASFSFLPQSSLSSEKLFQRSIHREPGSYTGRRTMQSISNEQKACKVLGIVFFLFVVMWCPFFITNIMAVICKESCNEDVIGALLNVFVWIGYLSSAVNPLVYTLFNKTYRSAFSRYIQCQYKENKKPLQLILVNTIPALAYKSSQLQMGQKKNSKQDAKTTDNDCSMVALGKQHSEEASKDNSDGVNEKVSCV
Scale: pKi equals -log10([C]), with [C] in mol/L.

Solved cases below.
# cpd smiles, experimental target, observed value
data = [
    ("CC(C)n1nc2c(c1-c1ccc(C#N)cc1)CCNCC2", "UniProt P28223", 8.30),
    ("CC(C)n1nc2c(c1-c1ccc(Cl)cc1)CCNCC2", "UniProt P28223", 9.00),
    ("c1ccc(-c2c3c(nn2C2CCC2)CCNCC3)cc1", "UniProt P28223", 8.52),
    ("c1ccc(-c2c3c(nn2C2CC2)CCNCC3)cc1", "UniProt P28223", 7.52),
    ("CC(C)n1nc2c(c1-c1ccc(Cl)c(Cl)c1)CCNCC2", "UniProt P28223", 7.41),
]

Consider the record given below.
Request: pKi, test system UniProt P28223, entry COc1ccc(-c2c3c(nn2C(C)C)CCNCC3)cc1
8.52
